tested on: KHYG-1 (IL-2 2.5 ng/mL); assay: percent inhibition of viability; higher = more inhibition; conditions: 72 h; 1 nM;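 further: normalised to DMSO-only wells as negative and benzethonium chloride as positive control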
experimental readout: percent inhibition of viability (%)
The response must be a number in % with no trailing unit.

CCc1nc(-c2cccc(C)c2)c(-c2ccnc(NC(=O)c3ccccc3)c2)s1 [TAK-715] (max concentration tested 10000 nM): -3.44
CC(=O)c1c(C)c2cnc(Nc3ccc(N4CCNCC4)cn3)nc2n(C2CCCC2)c1=O [Palbociclib] (max concentration tested 10000 nM): -0.2

Consider the record given below.
Record summary for CCN1CCN(c2ccc(Nc3cc(N(C)C(=O)Nc4c(Cl)c(OC)cc(OC)c4Cl)ncn3)cc2)CC1 [NVP-BGJ398] (max concentration tested 1000 nM) : reported percent inhibition of viability = -2.35
